- methodSummary: in vitro
- conditionContext: both, human, 10 min, 1 μM
Label label 0 if Concentration (μM) of analyte PEA, 10 min falls below 0.2 µM; label label 1 in every other case.

Answered cases to consult:
CCCCCCCCCCCCCCCC(=O)NCCOC(=O)CCC(=O)OCC(COC(=O)CCC)OC(=O)CCC (stereo not shown) [Compound I-11]
label 1
CCCCCCCCCCCCCCCC(=O)NCCOC(=O)CCC(=O)OCC(COC(=O)CCCCCCC)OC(=O)CCCCCCC (stereo not shown) [Compound I-3, PEA-Succinate-Glycerol-Di-Caprylic]
label 0
CC/C=C\C/C=C\C/C=C\C/C=C\C/C=C\CCCC(=O)OCCNC(=O)CCCCCCCCCCCCCCC [Compound I-5]
label 0

Determine whether this compound has Concentration (μM) of analyte PEA, 10 min no lower than 0.2 µM: CCCCCCCCCCCCCCCC(=O)NCCOC(=O)CCC(=O)OC[C@H]1O[C@@](CO)(O[C@H]2O[C@H](CO)[C@@H](O)[C@H](O)[C@H]2O)[C@@H](O)[C@@H]1O [Compound I-7] label 1

Concentration (μM) of analyte PEA, 10 min >= 0.2 µM for CCCCCCCCCCCCCCCC(=O)NCCOC(=O)CCC [Compound I-2] ? label 1

Identify whether the reported Concentration (μM) of analyte PEA, 10 min of the following compound is 0.2 µM or greater: CCCCC/C=C\C/C=C\CCCCCCCC(=O)OCCNC(=O)CCCCCCCCCCCCCCC [Compound I-6] label 0

Is reported Concentration (μM) of analyte PEA, 10 min greater than or equal to 0.2 µM here: CCCCCCCCCCCCCCCC(=O)NCCOC(=O)CCC(=O)OCC(O)CO (stereo not shown) [Compound I-9] label 1
